pIC50: −log10 of the molar value.
The listing below reports pIC50 for molecules tested on plasminogen tissue activator (t-PA) (Homo sapiens, UniProt P00750).
Sequence (P00750 23-562 limits assumed): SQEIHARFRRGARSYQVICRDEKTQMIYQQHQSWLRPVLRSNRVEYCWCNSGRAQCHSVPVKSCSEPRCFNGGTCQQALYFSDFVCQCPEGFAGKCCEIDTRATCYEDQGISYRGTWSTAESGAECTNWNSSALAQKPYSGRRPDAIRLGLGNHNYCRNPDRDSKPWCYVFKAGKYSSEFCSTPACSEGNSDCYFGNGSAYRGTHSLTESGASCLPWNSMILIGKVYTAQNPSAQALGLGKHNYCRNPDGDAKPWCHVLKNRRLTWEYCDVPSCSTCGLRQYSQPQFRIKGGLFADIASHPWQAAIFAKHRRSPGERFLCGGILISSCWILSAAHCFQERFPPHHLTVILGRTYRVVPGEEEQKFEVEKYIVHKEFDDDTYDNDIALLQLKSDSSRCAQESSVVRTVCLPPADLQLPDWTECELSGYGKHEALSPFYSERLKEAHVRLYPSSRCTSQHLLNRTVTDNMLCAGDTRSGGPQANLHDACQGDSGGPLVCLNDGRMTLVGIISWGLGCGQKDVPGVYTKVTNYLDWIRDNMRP
measurement_name: pIC50

// worked examples, pIC50 included
molecule: Cl.N=C(N)NCCC[C@H](NC(=O)c1cccc(C23CCC(O)(CC2)CC3)c1)B(O)O [Ex. 69, hydrochloride]
pIC50: 6.15
--
molecule: COc1cccc(CCNC(=O)C2(C(=O)N[C@@H](CCCNC(=N)N)B(O)O)CCCC2)c1.O=S(=O)(O)c1ccccc1 [Ex. 94, benzenesulfonate]
pIC50: 5.85

a. COC12CCC(c3ccc(C(=O)N[C@@H](CCCNC(=N)N)B(O)O)cc3)(CC1)CC2.Cl [Ex. 3, hydrochloride]
b. Cl.N=C(N)NCCC[C@H](NC(=O)c1ccc(C23CCC(Cl)(CC2)CC3)cc1)B(O)O [Ex. 6, hydrochloride]
For the pair a and b , which member has the lower pIC50 number? Record your answer as the label of the chosen record. a
